# System: T-Rex 293 cell line SC3 cells lacking increased expression of androgen receptor protein
# ASSAY_COMMENT: Cellular growth inhibition, T-Rex 293 SC3 cells without doxycycline, CellTiter-Glo
# Format: cell-based
# CONDITION_INFO: 72 h, T-Rex 293 SC3 cells not exposed to doxycycline, CellTiter-Glo 2.0
PROPERTY_NAME: GI50

Example compounds with recorded GI50:
| COMPOUND | PROPERTY_NAME | VALUE_OBSERVED |
| --- | --- | --- |
| Cc1sc2c(c1C)C(c1ccc(OC[C@H]3CC[C@]4(CCCN(c5ncc(C(=O)N[C@H]6C(C)(C)[C@H](Oc7ccc(C#N)c(Cl)c7)C6(C)C)cn5)C4)C3)cc1)=N[C@@H](Cc1ncco1)c1nnc(C)n1-2 | GI50 | > 3000 nM |
| Cc1sc2c(c1C)C(c1ccc(N3CCCC4(CCN(c5ncc(C(=O)N[C@H]6C(C)(C)[C@H](Oc7ccc(C#N)c(Cl)c7)C6(C)C)cn5)CC4)C3)cc1)=NC(Cc1ncco1)c1nnc(C)n1-2 (stereo partly drawn) | GI50 | > 3000 nM |
| Cc1sc2c(c1C)C(c1ccc(CCN3CC[C@]4(C3)CN(c3ncc(C(=O)N[C@H]5C(C)(C)[C@H](Oc6ccc(C#N)c(Cl)c6)C5(C)C)cn3)CCO4)cc1)=N[C@@H](Cc1ncco1)c1nnc(C)n1-2 | GI50 | < 500 nM |
| Cc1sc2c(c1C)C(c1ccc(Cl)cc1)=N[C@@H](CC(=O)NCCCN1CCN(CCCN(C)c3ncc(C(=O)N[C@H]4C(C)(C)[C@H](Oc5ccc(C#N)c(Cl)c5)C4(C)C)cn3)CC1)c1nnc(C)n1-2 | GI50 | > 3000 nM |
| Cc1sc2c(c1C)C(c1ccc(CCC(=O)N3CCN(c4ncc(C(=O)N[C@H]5C(C)(C)[C@H](Oc6ccc(C#N)c(Cl)c6)C5(C)C)cn4)CC3)cc1)=N[C@@H](Cc1ncco1)c1nnc(C)n1-2 | GI50 | < 500 nM |
| COCC[C@@H]1N=C(c2ccc(OC3CC4(C3)CC3(CCN(c5ncc(C(=O)N[C@H]6C(C)(C)[C@H](Oc7ccc(C#N)c(Cl)c7)C6(C)C)cn5)CC3)C4)cc2)c2c(sc(C)c2C)-n2c(C)nnc21 | GI50 | > 3000 nM |
| Cc1sc2c(c1C)C(c1ccc(OCCOC3CCN(c4ncc(C(=O)N[C@H]5C(C)(C)[C@H](Oc6ccc(C#N)c(Cl)c6)C5(C)C)cn4)CC3)cc1)=N[C@@H](CC(=O)O)c1nnc(C)n1-2 | GI50 | > 3000 nM |
| Cc1sc2c(c1C)C(c1ccc(CC3CC(OC4CCN(c5ncc(C(=O)N[C@H]6C(C)(C)[C@H](Oc7ccc(C#N)c(Cl)c7)C6(C)C)cn5)CC4)C3)cc1)=N[C@@H](C)c1nnc(C)n1-2 (stereo partly drawn) | GI50 | > 3000 nM |

From here, focus on the item given below.
Fill in the recorded GI50 for this compound, with T-Rex 293 cell line SC3 cells lacking increased expression of androgen receptor protein as test system: Cc1sc2c(c1C)C(c1ccc(OC3CN(CC4CCN(c5ncc(C(=O)N[C@H]6C(C)(C)[C@H](Oc7ccc(C#N)c(Cl)c7)C6(C)C)cn5)CC4)C3)cc1)=N[C@H](Cc1ncco1)c1nnc(C)n1-2
> 3000 nM

----------
Listed here: items and their measured GI50.
# System: T47D cells
# ASSAY_COMMENT: Cellular growth inhibition assay for T47D cells, CellTiter-Glo
# Type: cell-based, human
# CONDITION_INFO: 72 hours treatment, CellTiter-Glo 2.0 cell viability

Example compounds with recorded GI50:
| COMPOUND | VALUE_OBSERVED |
| --- | --- |
| Cc1sc2c(c1C)C(c1ccc(C#CC3CC(Cc4ncc(C(=O)N[C@H]5C(C)(C)[C@H](Oc6ccc(C#N)c(Cl)c6)C5(C)C)cn4)C3)cc1)=NC(Cc1ncco1)c1nnc(C)n1-2 (some centres unmarked) [Compound I-559] | 500 to 1500 nM |
| Cc1sc2c(c1C)C(c1ccc(N3CC(C4CCN(c5ncc(C(=O)N[C@H]6C(C)(C)[C@H](Oc7ccc(C#N)c(Cl)c7)C6(C)C)cn5)C4)C3)cc1)=N[C@@H](C)c1nnc(C)n1-2 (some centres unmarked) | < 500 nM |
| Cc1sc2c(c1C)C(c1ccc(C3CC(C4CCN(c5cnc(C(=O)N[C@H]6C(C)(C)[C@H](Oc7ccc(C#N)c(Cl)c7)C6(C)C)cn5)CC4)C3)cc1)=NC(C)c1nnc(C)n1-2 (some centres unmarked) [Compound I-470] | 500 to 1500 nM |
| Cc1sc2c(c1C)C(c1ccc(C3CC(C4CCN(c5cnc(C(=O)N[C@H]6C(C)(C)[C@H](Oc7ccc(C#N)c(Cl)c7)C6(C)C)cn5)CC4)C3)cc1)=NC(C)c1nnc(C)n1-2 (some centres unmarked) [Compound I-471] | < 500 nM |

From here, focus on the item given below.
# lookup: GI50 of Cc1sc2c(c1C)C(c1ccc([C@H]3C[C@@H]3CC3CCCN(c4ncc(C(=O)N[C@H]5C(C)(C)[C@H](Oc6ccc(C#N)c(Cl)c6)C5(C)C)cn4)C3)cc1)=N[C@@H](Cc1ncco1)c1nnc(C)n1-2 (some centres unmarked) [Compound I-493]
500 to 1500 nM

----------
Listed here: items and their measured GI50.
# Tested on: T-Rex 293 cell line SC3 cells lacking increased expression of androgen receptor protein
# ASSAY_COMMENT: Cellular growth inhibition, T-Rex 293 SC3 cells without doxycycline, CellTiter-Glo
# Type: cell-based
# CONDITION_INFO: 72 h, T-Rex 293 SC3 cells not exposed to doxycycline, CellTiter-Glo 2.0

Example compounds with recorded GI50:
| COMPOUND | GI50 |
| --- | --- |
| Cc1sc2c(c1C)C(c1ccc(N3CCCN(CCCNc4ncc(C(=O)N[C@H]5C(C)(C)[C@H](Oc6ccc(C#N)c(Cl)c6)C5(C)C)cn4)CC3)cc1)=N[C@@H](Cc1ncco1)c1nnc(C)n1-2 | 1500 to 3000 nM |
| Cc1sc2c(c1C)C(c1ccc(N[C@H]3CC[C@H](Nc4ncc(C(=O)N[C@H]5C(C)(C)[C@H](Oc6ccc(C#N)c(Cl)c6)C5(C)C)cn4)CC3)cc1)=N[C@@H](Cc1ncco1)c1nnc(C)n1-2 | < 500 nM |
| Cc1sc2c(c1C)C(c1ccc(CCCN3CC4(C3)CN(c3ncc(C(=O)N[C@H]5C(C)(C)[C@H](Oc6ccc(C#N)c(Cl)c6)C5(C)C)cn3)C4)cc1)=N[C@@H](Cc1ncco1)c1nnc(C)n1-2 | 500 to 1500 nM |
| Cc1sc2c(c1C)C(c1ccc(C(=O)N3CCN(C(=O)c4ncc(C(=O)N[C@H]5C(C)(C)[C@H](Oc6ccc(C#N)c(Cl)c6)C5(C)C)cn4)CC3)cc1)=N[C@H](Cc1ncco1)c1nnc(C)n1-2 | > 3000 nM |
| Cc1sc2c(c1C)C(c1ccc(OC3CC4(C3)CN(c3ncc(C(=O)N[C@H]5C(C)(C)[C@H](Oc6ccc(C#N)c(Cl)c6)C5(C)C)cn3)C4)cc1)=N[C@H](Cc1ncco1)c1nnc(C)n1-2 | < 500 nM |

Fill in the recorded GI50 for this compound, with T-Rex 293 cell line SC3 cells lacking increased expression of androgen receptor protein as test system: Cc1sc2c(c1C)C(c1ccc(O[C@H]3CCOC34CN(c3ncc(C(=O)N[C@H]5C(C)(C)[C@H](Oc6ccc(C#N)c(Cl)c6)C5(C)C)cn3)C4)cc1)=N[C@@H](Cc1ncco1)c1nnc(C)n1-2
< 500 nM

Thanks! And Cc1sc2c(c1C)C(c1ccc(C3(C4CC5(CCN(c6ncc(C(=O)N[C@H]7C(C)(C)[C@H](Oc8ccc(C#N)c(Cl)c8)C7(C)C)cn6)CC5)C4)CC3)cc1)=N[C@@H](Cc1ncco1)c1nnc(C)n1-2 ?
> 3000 nM

Thanks! And CCNC(=O)C[C@@H]1N=C(c2ccc(OC3CN(CC4CCN(c5ncc(C(=O)N[C@H]6C(C)(C)[C@H](Oc7ccc(C#N)c(Cl)c7)C6(C)C)cn5)CC4)C3)cc2)c2c(sc(C)c2C)-n2c(C)nnc21 ?
500 to 1500 nM

Thanks! And Cc1sc2c(c1C)C(c1ccc(CCCCC3CCN(c4ncc(C(=O)N[C@H]5C(C)(C)[C@H](Oc6ccc(C#N)c(Cl)c6)C5(C)C)cn4)CC3)cc1)=NC(Cc1ncco1)c1nnc(C)n1-2 (stereo partly drawn) ?
> 3000 nM

----------
# Tested on: T-Rex 293 cell line SC3 cells lacking increased expression of androgen receptor protein
# ASSAY_COMMENT: Cellular growth inhibition, T-Rex 293 SC3 cells without doxycycline, CellTiter-Glo
# Format: cell-based
# CONDITION_INFO: 72 h, T-Rex 293 SC3 cells not exposed to doxycycline, CellTiter-Glo 2.0
Listed here: items and their measured GI50.

| MOLECULE | GI50 |
| --- | --- |
| Cc1sc2c(c1C)C(c1ccc(N3CC4(CCN(c5ncc(C(=O)N[C@H]6C(C)(C)[C@H](Oc7ccc(C#N)c(Cl)c7)C6(C)C)cn5)C4)C3)cc1)=NC(Cc1ncco1)c1nnc(C)n1-2 (some centres unmarked) | 500 to 1500 nM |
| COCC[C@@H]1N=C(c2ccc(CCCOC3CCN(c4ncc(C(=O)N[C@H]5C(C)(C)[C@H](Oc6ccc(C#N)c(Cl)c6)C5(C)C)cn4)CC3)cc2)c2c(sc(C)c2C)-n2c(C)nnc21 | 500 to 1500 nM |
| CCNC(=O)C[C@@H]1N=C(c2ccc(N3CC(OC4CCN(c5ncc(C(=O)N[C@H]6C(C)(C)[C@H](Oc7ccc(C#N)c(Cl)c7)C6(C)C)cn5)CC4)C3)cc2)c2c(sc(C)c2C)-n2c(C)nnc21 | 500 to 1500 nM |
| Cc1sc2c(c1C)C(c1ccc(Cl)cc1)=N[C@@H](CC(=O)NCCCCCCCOC1CCN(c3ncc(C(=O)N[C@H]4C(C)(C)[C@H](Oc5ccc(C#N)c(Cl)c5)C4(C)C)cn3)CC1)c1nnc(C)n1-2 | > 3000 nM |

From here, focus on the item given below.
# lookup: GI50 of Cc1sc2c(c1C)C(c1ccc(N(C)CC(=O)N3CCC(c4ncc(C(=O)N[C@H]5C(C)(C)[C@H](Oc6ccc(C#N)c(Cl)c6)C5(C)C)cn4)CC3)cc1)=N[C@@H](Cc1ncco1)c1nnc(C)n1-2
> 3000 nM
